- Test system: CCRF-CEM
- Assay Name: NCI tumour cell line growth inhibition, 48 h
The source made the active and inactive calls. Rule as the data show it: active = GI50 up to about 1.1 µM and inactive = higher.
Reported Endpoint: GI50

- Compound: "N#CC1=C(C#N)/C(=C(\\C#N)C(C#N)C#N)N=C1N"
  Reported Endpoint: "GI50"
  Assay Value: "8.07 µM (inactive)"
- Compound: "CC(=O)OCC1OC(n2c3c(c(-c4ccc(Cl)cc4)c(C#N)c2=S)C(=O)CC(C)(C)C3)C(OC(C)=O)C(OC(C)=O)C1OC(C)=O (centres undefined)"
  Reported Endpoint: "GI50"
  Assay Value: "3.95 µM (inactive)"
- Compound: "CC(C)=NNC(=S)NC12CC3CC(CC(C3)C1)C2"
  Reported Endpoint: "GI50"
  Assay Value: "> 100 µM (inactive)"
- Compound: "Cc1ccc(S(=O)(=O)NC(=O)Nc2ccc(S(N)(=O)=O)cc2S(N)(=O)=O)cc1"
  Reported Endpoint: "GI50"
  Assay Value: "> 100 µM (inactive)"
- Compound: "CC(C)c1ccc2c(c1)/C(=C1/Nc3ccccc3C1=O)C(=O)N2"
  Reported Endpoint: "GI50"
  Assay Value: "27.3 µM (inactive)"
- Compound: "COc1ccc2[nH]cc(CCNC(=O)[C@H](Cc3ccc(O)cc3)NC(=O)[C@@H](NCC(F)(F)F)C(C)C)c2c1"
  Reported Endpoint: "GI50"
  Assay Value: "39.7 µM (inactive)"
- Compound: "O=C1CCc2ccc(O)c(c2)Oc2ccc(cc2)C(Sc2ccccc2)CCO1 (centres undefined)"
  Reported Endpoint: "GI50"
  Assay Value: "10.8 µM (inactive)"
- Compound: "C=C1C(=O)OC2/C=C(/C)C(OC(C)=O)CC(O)/C(C)=C\\C(OC(=O)/C(C)=C\\C)C12 (centres undefined)"
  Reported Endpoint: "GI50"
  Assay Value: "28.6 µM (inactive)"
- Compound: "COP(=O)(OC)/C(=C/c1cn(C(c2ccccc2)(c2ccccc2)c2ccccc2)cn1)NC=O"
  Reported Endpoint: "GI50"
  Assay Value: "24.8 µM (inactive)"
